- tested_target: panel of 255 wild-type kinases (Homo sapiens, UniProt P27361)
- Sequence (P27361 whole entry): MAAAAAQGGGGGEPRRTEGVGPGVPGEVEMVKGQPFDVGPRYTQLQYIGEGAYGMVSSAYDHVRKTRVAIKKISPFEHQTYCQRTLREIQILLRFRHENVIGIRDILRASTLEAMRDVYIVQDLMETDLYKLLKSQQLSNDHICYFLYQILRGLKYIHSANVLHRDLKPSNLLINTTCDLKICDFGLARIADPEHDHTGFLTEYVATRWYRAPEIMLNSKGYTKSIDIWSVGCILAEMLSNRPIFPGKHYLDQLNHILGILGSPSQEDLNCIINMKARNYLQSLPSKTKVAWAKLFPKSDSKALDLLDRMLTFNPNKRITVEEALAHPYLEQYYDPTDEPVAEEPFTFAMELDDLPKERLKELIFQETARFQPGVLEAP
- protocol_text: Kinase panel profiling at 1 µmol/L (MSA or IMAP), percentage inhibition
- Assay type: biochemical
- condition_details: kinase Erk1; 1 µmol/L single concentration; read-out: %-inhibition at 1 µmol/L, Erk1
assay_endpoint: inhibition at 1 µM (%)
Answer with a number only, understood to be in %.

Below: 3 compounds and their reported inhibition at 1 µM.
• Cc1nc(NC(=O)N2CCC[C@H]2C(N)=O)sc1-c1ccnc(C(C)(C)C(F)(F)F)c1 = -0.813
• Cn1cc(-c2cc3c(N4CCN(c5ncc([C@@](C)(N)c6ccc(F)cc6)cn5)CC4)ncnn3c2)cn1 = -1.84
• C[C@H]1Oc2cc(cnc2N)-c2c(nn(C)c2C#N)CN(C)C(=O)c2ccc(F)cc21 = 3

Please look at the following compound next.
Task: # input compound: `O=C(Nc1cnn2ccc(N3CCC[C@@H]3c3cc(F)ccc3F)nc12)N1CC[C@H](O)C1` ; wanted: its inhibition at 1 µM
Output: -14

###

- tested_target: panel of 255 wild-type kinases (Homo sapiens, UniProt Q9UQM7)
- Sequence (Q9UQM7 whole entry): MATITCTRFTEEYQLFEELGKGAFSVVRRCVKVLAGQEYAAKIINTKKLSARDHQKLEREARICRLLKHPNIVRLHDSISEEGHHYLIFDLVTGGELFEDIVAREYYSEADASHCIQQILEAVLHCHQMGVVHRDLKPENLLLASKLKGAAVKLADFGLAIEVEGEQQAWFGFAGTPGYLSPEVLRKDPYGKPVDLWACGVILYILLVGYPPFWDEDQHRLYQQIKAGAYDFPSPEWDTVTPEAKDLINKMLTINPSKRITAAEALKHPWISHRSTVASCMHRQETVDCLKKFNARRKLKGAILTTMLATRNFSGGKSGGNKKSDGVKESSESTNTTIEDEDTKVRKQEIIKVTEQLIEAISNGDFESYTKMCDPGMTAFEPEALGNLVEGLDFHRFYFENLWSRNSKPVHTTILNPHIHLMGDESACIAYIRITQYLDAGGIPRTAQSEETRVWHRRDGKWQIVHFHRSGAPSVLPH
- protocol_text: Kinase panel profiling at 1 µmol/L (MSA or IMAP), percentage inhibition
- Assay type: biochemical
- condition_details: CaMK2α kinase assay; 1 µmol/L single concentration; read-out: %-inhibition CaMK2α
assay_endpoint: inhibition at 1 µM (%)
Provide the reading as a plain figure in %.

Check out these entries, answers already filled in.
• COc1cc2ncnc(Nc3ccc(F)c(Cl)c3)c2cc1NC(=O)/C=C/CN1CCCCC1 = -1.13
• Cc1cc(Nc2ncnc3ccc(NC4=NC(C)(C)CO4)cc23)ccc1Oc1ccn2ncnc2c1 = -3
• COC(=O)N[C@@H](C)CNc1nccc(-c2cn(C(C)C)nc2-c2cc(Cl)cc(NS(C)(=O)=O)c2F)n1 = -2.55
• CCc1nc(C(N)=O)c(Nc2ccc(N3CCC(N4CCN(C)CC4)CC3)c(OC)c2)nc1NC1CCOCC1 = 36
• C=CC(=O)N1CCC([C@@H]2CCNc3c(C(N)=O)c(-c4ccc(Oc5ccccc5)cc4)nn32)CC1 = 2

Task: Which inhibition at 1 µM is reported for this molecule? `C[C@H](Nc1ncnc2nc[nH]c12)c1cc2cccc(Cl)c2c(=O)n1-c1ccccc1`
Output: 0.0129

Task: # inhibition at 1 µM lookup, item `O=C(Nc1cnn2ccc(N3CCC[C@@H]3c3cc(F)ccc3F)nc12)N1CC[C@H](O)C1`
Output: 2.74

###

Reported inhibition at 1 µM values follow for various compounds
- tested_target: panel of 255 wild-type kinases (Homo sapiens)
- Sequence (Q9NRM7 1-1088): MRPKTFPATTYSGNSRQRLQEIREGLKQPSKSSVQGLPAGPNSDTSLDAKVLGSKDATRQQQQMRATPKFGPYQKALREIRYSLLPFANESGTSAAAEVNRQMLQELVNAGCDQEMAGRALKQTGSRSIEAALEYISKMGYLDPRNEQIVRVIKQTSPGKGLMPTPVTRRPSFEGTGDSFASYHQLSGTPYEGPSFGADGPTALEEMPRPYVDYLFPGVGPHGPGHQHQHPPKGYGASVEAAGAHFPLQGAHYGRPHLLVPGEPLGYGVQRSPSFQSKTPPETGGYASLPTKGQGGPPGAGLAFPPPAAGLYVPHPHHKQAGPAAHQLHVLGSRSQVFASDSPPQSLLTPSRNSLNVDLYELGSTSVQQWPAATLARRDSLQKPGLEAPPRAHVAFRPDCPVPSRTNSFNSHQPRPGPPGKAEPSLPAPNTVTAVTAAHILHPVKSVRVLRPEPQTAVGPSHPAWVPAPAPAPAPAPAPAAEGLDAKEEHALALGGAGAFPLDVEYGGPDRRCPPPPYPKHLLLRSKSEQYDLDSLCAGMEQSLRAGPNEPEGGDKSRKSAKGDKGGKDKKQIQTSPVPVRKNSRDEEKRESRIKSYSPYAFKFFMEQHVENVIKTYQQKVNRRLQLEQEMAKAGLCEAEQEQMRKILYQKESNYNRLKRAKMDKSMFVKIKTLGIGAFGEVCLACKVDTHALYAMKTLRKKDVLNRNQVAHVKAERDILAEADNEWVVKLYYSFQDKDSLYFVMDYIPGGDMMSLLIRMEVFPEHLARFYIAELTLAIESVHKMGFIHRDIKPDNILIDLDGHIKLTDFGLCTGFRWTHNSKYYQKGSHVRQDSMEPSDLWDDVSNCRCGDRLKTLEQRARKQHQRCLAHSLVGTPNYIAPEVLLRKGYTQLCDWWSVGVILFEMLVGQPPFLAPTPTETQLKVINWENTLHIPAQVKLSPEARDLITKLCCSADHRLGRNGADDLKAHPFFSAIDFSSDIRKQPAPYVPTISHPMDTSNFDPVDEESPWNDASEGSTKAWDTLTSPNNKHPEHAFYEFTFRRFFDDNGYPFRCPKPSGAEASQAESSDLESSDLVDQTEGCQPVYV
- protocol_text: Kinase panel profiling at 1 µmol/L (MSA or IMAP), percentage inhibition
- Type: biochemical
- condition_details: kinase LATS2; 1 µmol/L single concentration; read-out: %-inhibition at 1 µmol/L, LATS2
Give the number; % is assumed, so skip it.

Use the examples below as a reference point.
* Cc1nc(NC(=O)N2CCC[C@H]2C(N)=O)sc1-c1ccnc(C(C)(C)C(F)(F)F)c1 | -1
* COc1cc2ncnc(Nc3ccc(F)c(Cl)c3)c2cc1NC(=O)/C=C/CN1CCCCC1 | 11
* Cn1cnc2c(F)c(Nc3ccc(Br)cc3Cl)c(C(=O)NOCCO)cc21 | -3.38
* Cn1cnc2c(F)c(Nc3ccc(Br)cc3F)c(C(=O)NOCCO)cc21 | -3
* CCn1c(=O)c(-c2cc(NC(=O)Nc3ccccc3)c(F)cc2Br)cc2cnc(NC)cc21 | -0.411

Task: Would you mind telling me what inhibition at 1 µM value was observed for `O=C(Nc1cnn2ccc(N3CCC[C@@H]3c3cc(F)ccc3F)nc12)N1CC[C@H](O)C1` ?
Output: -3

Task: Please give the measured inhibition at 1 µM for this compound: `CO[C@]1(C(=O)N[C@@H](C)c2ccc(-n3cc(F)cn3)nc2)CC[C@H](c2nc(C)cc(Nc3cc(C)[nH]n3)n2)CC1`
Output: 7.44

Task: May I ask what inhibition at 1 µM has been recorded for `C[C@H]1Oc2cc(cnc2N)-c2c(nn(C)c2C#N)CN(C)C(=O)c2ccc(F)cc21` ?
Output: 6

Task: Record request: inhibition at 1 µM value, item `Cc1cc(Nc2ncnc3ccc(NC4=NC(C)(C)CO4)cc23)ccc1Oc1ccn2ncnc2c1`
Output: 0.168

Task: // inhibition at 1 µM lookup, key: `CCN1CCN(c2ccc(Nc3cc(N(C)C(=O)Nc4c(Cl)c(OC)cc(OC)c4Cl)ncn3)cc2)CC1`
Output: -3.67

Task: Could you tell me which inhibition at 1 µM is on file for `CN1CCN(c2ccc(C(=O)Nc3n[nH]c4ccc(Cc5cc(F)cc(F)c5)cc34)c(NC3CCOCC3)c2)CC1` ?
Output: 18

Task: What value of inhibition at 1 µM has been reported for the following compound? `C=CC(=O)N1CCC([C@@H]2CCNc3c(C(N)=O)c(-c4ccc(Oc5ccccc5)cc4)nn32)CC1`
Output: -0.0723

###

- tested_target: panel of 255 wild-type kinases (Homo sapiens, UniProt Q13555)
- Sequence (Q13555 whole entry): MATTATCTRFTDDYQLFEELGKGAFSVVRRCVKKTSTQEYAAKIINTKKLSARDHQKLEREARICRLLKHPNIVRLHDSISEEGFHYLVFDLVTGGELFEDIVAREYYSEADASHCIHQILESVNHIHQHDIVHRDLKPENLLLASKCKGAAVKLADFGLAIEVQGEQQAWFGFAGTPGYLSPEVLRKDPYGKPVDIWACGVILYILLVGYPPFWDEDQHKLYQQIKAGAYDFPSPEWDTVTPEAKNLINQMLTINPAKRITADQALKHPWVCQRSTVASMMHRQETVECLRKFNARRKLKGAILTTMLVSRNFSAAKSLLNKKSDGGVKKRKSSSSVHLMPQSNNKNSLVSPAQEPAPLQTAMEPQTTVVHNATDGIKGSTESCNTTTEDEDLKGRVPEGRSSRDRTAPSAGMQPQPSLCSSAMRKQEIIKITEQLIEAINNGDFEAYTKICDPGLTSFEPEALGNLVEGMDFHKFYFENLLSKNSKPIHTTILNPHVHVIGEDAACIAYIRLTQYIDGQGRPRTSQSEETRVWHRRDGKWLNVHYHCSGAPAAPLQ
- protocol_text: Kinase panel profiling at 1 µmol/L (MSA or IMAP), percentage inhibition
- Type: biochemical
- condition_details: CaMK2γ kinase assay; 1 µmol/L single concentration; read-out: %-inhibition CaMK2γ
assay_endpoint: inhibition at 1 µM (%)
The answer is to be given in %; state only the numeric part.

Sample records with inhibition at 1 µM:
* O=C(Nc1cnn2ccc(N3CCC[C@@H]3c3cc(F)ccc3F)nc12)N1CC[C@H](O)C1 | -0.126
* CCn1c(=O)c(-c2cc(NC(=O)Nc3ccccc3)c(F)cc2Br)cc2cnc(NC)cc21 | 0.397
* COC(=O)N[C@@H](C)CNc1nccc(-c2cn(C(C)C)nc2-c2cc(Cl)cc(NS(C)(=O)=O)c2F)n1 | -3.25

Next, consider the following compound.
Task: Return reported inhibition at 1 µM; argument: `CCc1nc(C(N)=O)c(Nc2ccc(N3CCC(N4CCN(C)CC4)CC3)c(OC)c2)nc1NC1CCOCC1`
Output: 62

###

- tested_target: UniProtKB P19525
- Sequence (P19525 whole entry): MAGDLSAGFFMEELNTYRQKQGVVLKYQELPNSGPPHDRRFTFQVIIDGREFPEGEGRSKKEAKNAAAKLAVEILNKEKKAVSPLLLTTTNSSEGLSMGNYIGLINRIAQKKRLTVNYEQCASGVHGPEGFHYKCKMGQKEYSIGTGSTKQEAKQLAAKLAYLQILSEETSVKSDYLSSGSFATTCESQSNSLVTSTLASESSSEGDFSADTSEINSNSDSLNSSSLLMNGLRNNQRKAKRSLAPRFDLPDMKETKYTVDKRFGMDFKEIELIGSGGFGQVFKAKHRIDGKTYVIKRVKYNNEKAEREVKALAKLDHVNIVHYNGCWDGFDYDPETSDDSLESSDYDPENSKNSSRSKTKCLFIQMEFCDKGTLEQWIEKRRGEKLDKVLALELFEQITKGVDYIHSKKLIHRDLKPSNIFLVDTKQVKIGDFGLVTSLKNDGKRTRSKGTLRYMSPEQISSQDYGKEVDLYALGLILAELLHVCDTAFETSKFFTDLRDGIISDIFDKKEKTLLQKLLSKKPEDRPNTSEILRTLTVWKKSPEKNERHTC
- protocol_text: Kinase panel profiling at 1 µmol/L (MSA or IMAP), percentage inhibition
- Format: biochemical
- condition_details: kinase PKR; 1 µmol/L single concentration; read-out: %-inhibition at 1 µmol/L, PKR
assay_endpoint: inhibition at 1 µM (%)
Write it as a number; the unit % goes unstated.

Worked set:
• CCN1C(=O)N(c2c(F)c(OC)cc(OC)c2F)Cc2cnc3[nH]c(CN4CCOCC4)cc3c21 = 85
• Cn1cnc2c(F)c(Nc3ccc(Br)cc3Cl)c(C(=O)NOCCO)cc21 = 1.47
• CN1CCN(c2ccc(C(=O)Nc3n[nH]c4ccc(Cc5cc(F)cc(F)c5)cc34)c(NC3CCOCC3)c2)CC1 = 3.49

Task: Entry `COc1cc2ncnc(Nc3ccc(F)c(Cl)c3)c2cc1NC(=O)/C=C/CN1CCCCC1` : reported inhibition at 1 µM = ?
Output: 3.25
